Tested on: Human papillomavirus type 1a protein E7 (residues 44-93)
Assay: small molecules binding HPV E7 44-93 – biochemical, small-molecule microarray, residues 44-93, 635 nm fluorescence, primary screen (AID 1108);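 note: E7 fragment applied at 1 µg/mL in TBST for 1 h at 4 C; score combines spot fluorescence with its signal to noise ratio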
Settings: fluorescence 635 nm, higher = more signal
property_measured: composite z-score

> print(dat)
                                   compound                          target.or.system  number
1  CC(C)(C)OC(=O)CC[C@@]1(C(=O)NCC(O)CO)N=C(c2ccc(OCCCO)cc2)O[C@@H]1c1ccccc1CN=[N+]=[N-] (some centres undefined)  Human papillomavirus type 1a protein E7 (residues 44-93)    1.11
2  COc1cc(NN2C(C(O)c3cc(OC)c(OC)c(OC)c3)C=CC3C(=O)N(C)C(=O)C32)cc(OC)c1OC (centres undefined)  Human papillomavirus type 1a protein E7 (residues 44-93)    1.09
3  C=C(/C(=C/C[C@H](OC(=O)c1ccncc1)c1ccc(CO)o1)c1cnc2ccccc2c1)C(C)C  Human papillomavirus type 1a protein E7 (residues 44-93)    1.38
4  COc1ccc([Si](C)(C)[C@@H]2[C@@H](CCO)O[C@]3(C(=O)N(Cc4ccccc4)c4ccc(NC(=O)[C@H](C)O)cc43)[C@H]2C)cc1  Human papillomavirus type 1a protein E7 (residues 44-93)    1.35
